Test: amyloid nucleation score (Sup35N fusion, yeast selection) (log enrichment); library NNK3; higher = more nucleation; inactive = no reads after selection;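 further: zero at mode of non-aggregating sequences after 7 days selection at 30°C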
Value kind: amyloid nucleation score

substance=VEMFNITAYTIKSLRVIGLV result=inactive
substance=VCNMYFSFIRNLRGFNRNQC result=2.06
substance=GDVRLFTCRMLGILFFSIT result=inactive
substance=LCIWNWFLSSNRMLRKLAD result=inactive
substance=QFGSWD result=inactive
substance=GYRLRQTSARYIAVEWSWKC result=inactive
substance=CLSLKNERHQVFMSRIGNRA result=inactive
substance=FYMYLTSVCA result=inactive
substance=KTYPTLCILCVDMLLRKRGV result=inactive
substance=ILFGGRNGKWLVEPGLSRVL result=0.84
substance=RQILSFWP result=inactive
substance=ILCQIDAKDPKPLMTRGLRL result=inactive
substance=SLMEGYSFSVPRSASRCSSQ result=inactive
substance=MTSITVDYDNLDYRIAMITW result=inactive
substance=YMSFFIFIPIFLCVNLDRVC result=2.38
substance=SCDLFSC result=inactive
substance=SCAYGLGCMLMVKHN result=inactive
substance=LWSWDDIHPFCLILLLTRCP result=inactive
substance=LENLLGMWVSCAWLSGSHFV result=inactive
substance=MFYVVLSYK result=0.071

* * *

Experiment: amyloid nucleation score (Sup35N fusion, yeast selection) (log enrichment); library NNK2; higher = more nucleation; inactive = no reads after selection
Value kind: amyloid nucleation score

seq_string=CIFYFMILFSGDIKCLNKPL value_kind="amyloid nucleation score" result=inactive
seq_string=RSRAQQHSQHNTVDITPTRS value_kind="amyloid nucleation score" result=0.194
seq_string=NFASFCPFFS value_kind="amyloid nucleation score" result=0.053
seq_string=RWIATGSGRPETHVILESSG value_kind="amyloid nucleation score" result=inactive
seq_string=RVYDGAVVR value_kind="amyloid nucleation score" result=0.547
seq_string=MIIMQANDP value_kind="amyloid nucleation score" result=-0.302

* * *

Assay: amyloid nucleation score (Sup35N fusion, yeast selection) (log enrichment); library NNK1; higher = more nucleation; inactive = no reads after selection
Entries are grouped by amyloid nucleation score into these classes: bucket A: < 0.2; bucket B: ≥ 0.2 and < 0.5; bucket C: ≥ 0.5

substance=CLCARML assigned_category="bucket C"
substance=VLMRSEMESRFNEGRSTQGC assigned_category="bucket B"
substance=GSFVGRR assigned_category="bucket B"
substance=LTGRCPFVGLRLEGHLFLTG assigned_category="bucket A"
substance=GNIDGICERSCNRFANYIQG assigned_category="bucket C"
substance=SKCDQSIRYSRGNETPLDSL assigned_category="bucket B"
substance=FWRKENGYWLGFMPLVREGT assigned_category="bucket B"
substance=RGHLKLVTNYISMSRVSYFS assigned_category="bucket C"
substance=VYGMITIDNRQVRVVLGFRS assigned_category="bucket A"

* * *

Experiment: amyloid nucleation score (Sup35N fusion, yeast selection) (log enrichment); library NNK3; higher = more nucleation; inactive = no reads after selection
Value kind: amyloid nucleation score

substance=QTGLVMWQLTFTYPLHVWNM result=inactive
substance=TKLPNYFWGLKGYHLLALLR result=inactive
substance=THLIIHCLCLFERVFITHVA result=inactive
substance=AAGRGWTGEALMHRNAQCDS result=0.244
substance=SKGTLKHLN result=0.921
substance=RLTTNTIVKDSISRFRN result=0.183
substance=WDPECSTDVISEGRGRYTEW result=inactive
substance=VEGCMIFMVVSLLKHYASYT result=inactive
substance=VRNKLNCKRSGA result=inactive
substance=IPSNTKSFSH result=inactive
substance=HCCNIRRARTQF result=inactive
substance=RSIHYSYWCIYGNIRDTVRS result=inactive
substance=NEIFIRLLSNMKEPR result=1.31
substance=MRCGRIDGDFGFAPRLRGTM result=0.902
substance=CSILACSA result=inactive
substance=YISCMCANIRNIFVISIH result=1.81
substance=VIITNEMVDRVDGDTTSYMH result=-0.003
substance=SYYSRIRLLRRVRVSYYYVR result=0.801
substance=RMMCARIFRVSWLSSCLEGG result=inactive
substance=FDERSF result=inactive
substance=HTTIQETFVRIPRLCRWHRR result=inactive
substance=REWCLEVYHWYITRSHVYWC result=inactive
substance=SVYGSVFKNRG result=inactive
substance=SLMNHLSGTKVMLGRLRYSN result=inactive
substance=AHCLTRGSVTPCPLGSRAVR result=inactive
substance=QRAMYCKSLMSF result=inactive
substance=AGNLLARPSLQKGCLLDELP result=-0.73
substance=GDLKLGLVIYESCGSMVMSW result=inactive
substance=RSWIGTKGPL result=inactive
substance=WYVYKFCEPVGDRGRFVWCL result=-0.212
substance=KPMVYFQLRRLSKKVIYCAM result=inactive
substance=PNRWLSRLALRIFLGHCEPV result=inactive
substance=DNICIYWALDGIYECSRHSR result=inactive
substance=TVRKSRSRSTQDEAFNPGTH result=0.111
substance=LDGTGCDGPLARKNCGRNAV result=inactive
substance=DSSLYKDQYRVRSSGQFKRA result=inactive
substance=YLRWLLFYS result=inactive
substance=VTNPLGPFMDRF result=inactive
substance=ISPYIIVPY result=inactive
substance=RNQFWTWYGVSMLSNRQHGK result=inactive
substance=RLKCHNNMNYSSYDLH result=inactive
substance=CIRVKHFCISHEDKR result=inactive
substance=YSRSTWVRIWFLLVSLLPVG result=inactive
substance=IVLYRKVRPCTWAE result=inactive
substance=IETGSKYVAVRARLQSVMDG result=inactive
substance=IQGLCCRHAEFKNY result=inactive
substance=YTRLRNVDTRAFMDSPDILW result=inactive
substance=FSVQAIWFVMSLNRFLGKGR result=inactive
substance=LRLCGAMPDRCLW result=inactive
substance=HCVMNNVAWVLRYTDRRDAL result=1.2
substance=FYMWFMRTGLTKYPNGAIKV result=inactive
substance=SGNHLSWYGTIE result=1.26
substance=LSMFGGNASALL result=inactive
substance=VGAGWYN result=inactive
substance=TSKREWLMRNYAHCTNFDGR result=inactive

* * *

Assay: amyloid nucleation score (Sup35N fusion, yeast selection) (log enrichment); library NNK1; higher = more nucleation; inactive = no reads after selection
Value kind: amyloid nucleation score

substance=DTVSLWLPARMTNDNFQDLS numeric_readout=0.399
substance=GLLMISISYLITRMVFMDNI numeric_readout=0.412

* * *

Assay: amyloid nucleation score (Sup35N fusion, yeast selection) (log enrichment); library NNK2; higher = more nucleation; inactive = no reads after selection
Entries are grouped by amyloid nucleation score into these classes: low range: < -0.01; mid range: ≥ -0.01 and < 2; high range: ≥ 2

seq_string=RRRCYHTVSKFRWNIQSAVT assigned_category="low range"
seq_string=FAIDMRYVGGQGCCILYIRR assigned_category="mid range"
seq_string=RGINKTDIFVFELCVHDVCL assigned_category="high range"
seq_string=SRMLYVQIWREYVNSWKTSS assigned_category="low range"
seq_string=DIFLTLEFYISVETKGAKKA assigned_category="high range"
seq_string=TRSDMLVLLCIIMCFSYSYP assigned_category="high range"
seq_string=YSKNWYWCTDYARANTLYHG assigned_category="low range"
seq_string=RIWKWLLTQICFIRAQPLM assigned_category="mid range"
seq_string=EVEIVAWFGLHHSWWH assigned_category="high range"
seq_string=GRYVNCGRSLRICSINLTKI assigned_category="low range"
seq_string=FSLFISKMN assigned_category="low range"
seq_string=GSWLLGMMVLQRILMNG assigned_category="mid range"
seq_string=GVIVCTWPRPRDCS assigned_category="mid range"
seq_string=CHHGRYIQRVGYRLVPSAFQ assigned_category="mid range"
seq_string=QINSHNWYDG assigned_category="mid range"
seq_string=YLTNNLVLWFDICDEERYWW assigned_category="high range"
seq_string=YNIIYWFLYKVQAWSVCSWG assigned_category="high range"
seq_string=MAFCCLSVRYTIGRVVAFMY assigned_category="low range"
seq_string=VFAYYIDRARSSRVPCTVAN assigned_category="high range"
seq_string=IHIWGSLSIDIEFVCGMKAR assigned_category="mid range"
seq_string=LVNACFCACLRNNSFKCDYY assigned_category="high range"
seq_string=NAQYGRCSLWCPCPTVWTA assigned_category="high range"
seq_string=PNVAIYIPTGYGLTVTPPAS assigned_category="low range"
seq_string=LSDIRWMSCGGVL assigned_category="low range"
seq_string=KWRDRNDINNFRQGLLCSVN assigned_category="high range"
seq_string=DDGMCRRYCLGRKYTMGIEL assigned_category="mid range"
seq_string=MFSNQADFDTNLVSLYDKTW assigned_category="low range"
seq_string=HRKAYEPWFGCNMTYAGLGN assigned_category="low range"
seq_string=CPIDYGTSVNHDNKVSILYL assigned_category="mid range"
seq_string=ILVTVNTGSFLKSILHWL assigned_category="high range"
seq_string=TGFGTSMFSKLYVNVNYL assigned_category="high range"
seq_string=NFSDWIYVFSEVPMLVRCRW assigned_category="mid range"
seq_string=NQVSIIHWWAAYDYWSPM assigned_category="low range"
seq_string=FSIGGVKGEGSKFQGGSQMS assigned_category="low range"
seq_string=ICVMSQCTQMYRMKICGSLQ assigned_category="mid range"
seq_string=LLLIADYMSLVCCRAGVRDV assigned_category="mid range"
seq_string=VVKYFCDHI assigned_category="high range"
seq_string=TRAWITWAKVWRSQMNRGKA assigned_category="mid range"
seq_string=MLVPFRVESMSGTRTCKVTV assigned_category="high range"
seq_string=TGSRNIWTRVVFLYCFRVHG assigned_category="low range"
seq_string=MNMFMCFNGHNKRIVVKSKL assigned_category="mid range"
seq_string=RIRRVSERMSVFRTLHRTMW assigned_category="high range"
seq_string=FHPVWSLRKLFDCPDWTLAR assigned_category="mid range"
seq_string=CLGNHIDSCVVFLTDAESSS assigned_category="low range"
seq_string=ADDCLRTCSNKLKTQAGLW assigned_category="mid range"
seq_string=PCVPGDYTVAKVAFSTY assigned_category="low range"
seq_string=YVVGDMTFWS assigned_category="low range"
seq_string=MLGVSQCVVMVVAGWA assigned_category="mid range"
seq_string=IRIACSGLSDRFMNRVHLHS assigned_category="low range"
seq_string=LKTLIKDPMLYGQALSRVFC assigned_category="low range"
seq_string=STMAGTLW assigned_category="mid range"
seq_string=GLSAIPFTDG assigned_category="low range"
seq_string=VIAVCLVLVSSDVKIGTRMG assigned_category="mid range"
seq_string=NPWVRFVVSCLYAVSQQCGL assigned_category="high range"
seq_string=RMPFHVFRIKFHFLLRVPIQ assigned_category="mid range"
seq_string=LNKMECPCLFCVCVAFVIEW assigned_category="high range"
